ASSAY_NOTES: in vitro
TEST_PARAMETERS: hamster, cho-adr cells

# STRUCTURE_SMILES_STRING, MCC at 24 h
rows = [
    ("CN(C)CCOc1ccc(/C(=C(/CCCl)c2ccccc2)c2ccccc2)cc1", "> 10 µM"),
]

* * *

Test system: MCF-7/DOX cells
ASSAY_NOTES: Inhibition of cell growth / reversal of MDR in MCF-7/DOX cells (methylene blue)
Assay type: cell-based, human
TEST_PARAMETERS: MCF-7/DOX cells; Table 5 and FIG. 7
VALUE_TYPE: Effectiveness in reversing MDR

# STRUCTURE_SMILES_STRING, TEST_TARGET, RESULT
rows = [
    ("CC/C(=C(\\c1ccccc1)c1ccc(OCCN(C)C)cc1)c1ccccc1", "MCF-7/DOX cells", "almost equally effective"),
    ("CN(C)CCOc1ccc(/C(=C(/CCCl)c2ccccc2)c2ccccc2)cc1", "MCF-7/DOX cells", "almost equally effective"),
    ("CNCCOc1ccc(C(=C(CCCl)c2ccccc2)c2ccccc2)cc1", "MCF-7/DOX cells", "almost equally effective"),
]
